Sourced from patent US11866518B2

Each item that follows carries a reported inhibition at 10 µM.
test.target: TSLP (Homo sapiens, UniProt Q969D9)
Sequence (Q969D9 29-159): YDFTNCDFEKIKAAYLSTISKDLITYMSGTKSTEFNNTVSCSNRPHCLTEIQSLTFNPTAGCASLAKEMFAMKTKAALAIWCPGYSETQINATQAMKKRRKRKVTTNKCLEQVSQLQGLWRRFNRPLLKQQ
test: Human peripheral blood mononuclear cell assay (TSLP-induced CCL17/TARC)
Type: cell-based
Parameters: host or cells: added to human PBMCs from healthy donors
run.parameters: read-out: CCL17 % Inhibition @ 10 μM, […] TSLP
Express the reported value numerically, then name its unit.

{"columns": ["molecule", "inhibition at 10 µM"],
 "data": [
  ["CC(=O)N[C@H]1CSCCC(=O)N2CN3CN(C2)C(=O)CCSC[C@H](NC(=O)[C@H](CC(=O)O)NC(=O)[C@H](CCC(=O)O)NC(=O)[C@H](CC(C)(C)C)NC(=O)[C@H](Cc2c[nH]c4ccccc24)NC(=O)[C@H](CCC(N)=O)NC1=O)C(=O)N[C@@H](Cc1c[nH]c2ccccc12)C(=O)N[C@@H](CCCNC(=N)N)C(=O)NCC(=O)N[C@@H](Cc1ccccc1)C(=O)N[C@H](C(N)=O)CSCCC3=O [Example 44, Ac-(SEQ ID NO: 39)]", "52%"]
]}

# ---- query molecule ----
The molecule identified as CC(C)C[C@@H]1NC(=O)[C@H](Cc2c[nH]c3ccccc23)NC(=O)[C@@H]2CSCCC(=O)N3CN(CN(C3)C(=O)CCSC[C@@H](C(=O)N[C@@H](C)C(N)=O)NC(=O)[C@H](CO)NC1=O)C(=O)CCSC[C@H](NC(=O)[C@H](C)N)C(=O)N[C@@H](CC(=O)O)C(=O)N[C@@H](Cc1c[nH]c3ccccc13)C(=O)N[C@@H](Cc1c[nH]cn1)C(=O)N[C@@H](Cc1c[nH]c3ccccc13)C(=O)N[C@@H](CCC(=O)O)C(=O)N[C@@H](Cc1ccc(O)cc1)C(=O)N[C@@H](CC(=O)O)C(=O)N2 [Example 199, A-(SEQ ID NO: 144)-A] registered its inhibition at 10 µM at -3%
